Each entry below carries its reported non-specific binding and adsorption relative to wild type TM2 (% of wild type TM2).
STUDY TARGET: human serum protein
METHOD SUMMARY: summary of Example 1-9: adsorption to human serum protein-immobilized magnetic beads
OUTCOME MEASURE: non-specific binding and adsorption relative to wild type TM2 (% of wild type TM2)

INSERT INTO assay_data (binder, readout_number) VALUES
  ('TM2 K141E (protein) MSDVQSSLTGTWYNELNSKMELTANKDGTLTGKYLSKVGDVYVPYPLSGRYNLQPPAGQGVALGWAVSWENSKIHSATTWSGQFFSESSPVILTQWLLSSSTARGDVWESTLVGNDSFTKTAPTEQQIAHAQLHCRAPRLE', 60),
  ('TM2 K73Q (protein) MSDVQSSLTGTWYNELNSKMELTANKDGTLTGKYLSKVGDVYVPYPLSGRYNLQPPAGQGVALGWAVSWENSQIHSATTWSGQFFSESSPVILTQWLLSSSTARGDVWESTLVGNDSFTKTAPTEQQIAHAQLHCRAPRLK', 60),
  ('TM2 R104EK141E (protein) MSDVQSSLTGTWYNELNSKMELTANKDGTLTGKYLSKVGDVYVPYPLSGRYNLQPPAGQGVALGWAVSWENSKIHSATTWSGQFFSESSPVILTQWLLSSSTAEGDVWESTLVGNDSFTKTAPTEQQIAHAQLHCRAPRLE', 20),
  ('TM2 K26A (protein) MSDVQSSLTGTWYNELNSKMELTANADGTLTGKYLSKVGDVYVPYPLSGRYNLQPPAGQGVALGWAVSWENSKIHSATTWSGQFFSESSPVILTQWLLSSSTARGDVWESTLVGNDSFTKTAPTEQQIAHAQLHCRAPRLK', 60);
